Tested on: RPMI-8226
Assay Procedure: NCI tumour cell line growth inhibition, 48 h
Activity calls are given as the source filed them. Cut-off read from the data, not from the text of the source: active = GI50 up to about 1.1 µM and inactive = higher.
Measured Quantity: GI50

Answered cases to consult:
| Compound | GI50 |
| --- | --- |
| CCc1nnc(S)n1/N=C\c1ccc(-c2ccccc2[N+](=O)[O-])o1 | 13.2 µM (inactive) |
| Cc1cn(CCCCOC(=O)NC(CCCNC(=N)N)C(=O)O)c(=O)[nH]c1=O (stereo unspecified) | > 100 µM (inactive) |
| c1cnc2c(c1)-n1cccc1C1(CCSC1)NN2 (stereo unspecified) | > 100 µM (inactive) |
| COC(=O)[C@@](NC(=O)OCc1ccccc1)([C@H](C)O)C(F)(F)F | > 100 µM (inactive) |

Lookup result for OCC1OC(n2cnc3c(/C=C(/O)c4ccccc4)ncnc32)C(O)C1O (stereo unspecified) ; measured GI50: 1.38 µM (inactive)

Lookup result for O=P(O)(O)OC1O[C@H](CO)[C@H](O)[C@H](O)[C@H]1O (stereo partly specified) ; measured GI50: > 100 µM (inactive)

====

System: HT-29
Assay Procedure: NCI tumour cell line growth inhibition, 48 h
Structures can show the parent of a compound that is named as a salt. Activity calls are given as the source filed them. Cut-off read from the data, not from the text of the source: active = GI50 up to about 1.1 µM and inactive = higher.
Your answer must be one of the following: t (active), f (inactive)

Solved entries (count: 8):
| Molecule | Class Assignment |
| --- | --- |
| O=C(OCCN1CCCCCC1)C(c1ccsc1)C1CCCCC1 (stereo not given) [CETIEDIL CITRATE] | f |
| CCOC(=O)C1C(=O)c2ccccc2CN1Cc1ccccc1 (stereo not given) | f |
| Cc1cc(=O)n2nc(SCc3ccccc3)sc2n1 | f |
| CCC[C@H](C)[C@H]1NC(=O)[C@@H](NC(=O)[C@@H](CC(C)C)N(C)C(=O)C2CCCN2C(=O)[C@H](C)O)[C@@H](C)OC(=O)[C@H](CC(C)C)N(C)C(=O)[C@@H]2CCCN2C(=O)[C@H](CC(C)C)NC(=O)[C@@H](C)C(=O)[C@H](C(C)C)OC(=O)C[C@@H]1O (stereo not given in full) | t |
| Cc1ccc2ccccc2c1CC1S(=O)(=O)OCCOS1(=O)=O | f |
| Nc1nc(SCCc2ccccc2)nc2nc3c(c(-c4ccccc4)c12)CCCC3 | f |
| CCOC(=O)c1nc2ccccc2nc1Nc1ccc(Cl)c(Cl)c1 | f |
| OCC1CC2C=CCC(C2)C1 (stereo not given) | f |

For this molecule, state the assay outcome: COc1ccc(Oc2cnn(C(Br)(Br)C(C)=O)c(=O)c2Br)cc1
f

For this molecule, state the assay outcome: CCOC(=O)C(=O)Nc1ccc(Cl)c(C(F)(F)F)c1
f

For this molecule, state the assay outcome: CCCCOCCOC1=C(Cl)C(=O)c2c(O)ccc(O)c2C1=O
t

====

System: OVCAR-8
Assay Procedure: NCI tumour cell line growth inhibition, 48 h
Active and inactive are the calls of the source. Rule as the data show it: active = GI50 up to about 1.1 µM and inactive = higher.
The following compounds are shown together with reported GI50 values.

Answered cases to consult:
| Compound | GI50 |
| --- | --- |
| CCOC(=O)c1cc(C#N)[nH]c1-c1ccsc1 | 36.6 µM (inactive) |
| Cc1cc(C(=O)CBr)c(CN2C(=O)c3ccccc3C2=O)c(=O)n1C | 18.1 µM (inactive) |

Lookup result for C[C@@H]1CC[C@@H]2[C@@H](C1)O[C@@H]([C@H](C)OCc1ccccc1)SC2(C)C ; measured GI50: 31.5 µM (inactive)

Lookup result for Cc1c(N)nc([C@H](CC(N)=O)NC[C@H](N)C(N)=O)nc1C(=O)N[C@H](C(=O)N[C@H](C)[C@@H](O)CC(=O)N[C@H](C(=O)NC(O[C@@H]1O[C@@H](C)[C@@H](N)[C@@H](O)[C@H]1O)C(O)c1nc(-c2nc(C(=O)NCCCCN)cs2)cs1)[C@@H](C)O)[C@@H](O[C@@H]1O[C@@H](CO)[C@@H](O)[C@H](O)[C@@H]1O[C@H]1O[C@H](CO)[C@@H](O)[C@H](OC(N)=O)[C@@H]1O)c1c[nH]cn1 (stereo partly specified) ; measured GI50: 12.6 µM (inactive)

Lookup result for CC(=N\N=C\c1ccccn1)/C(C)=N/N=C(C)/C(C)=N/N=C(C)/C(C)=N/N=C/c1ccccn1 ; measured GI50: > 100 µM (inactive)

Lookup result for COc1cc([C@@H]2c3cc4c(cc3[C@@H](NCc3ccc(C#N)cc3)C3COC(=O)[C@@H]32)OCO4)cc(OC)c1O (stereo partly specified) ; measured GI50: 1.2 µM (inactive)

====

Tested on: SNB-19
Assay Procedure: NCI tumour cell line growth inhibition, 48 h
Active and inactive are the calls of the source. Rule as the data show it: active = GI50 up to about 1.1 µM and inactive = higher.
The following molecules are shown together with reported GI50 values.

| Molecule | GI50 |
| --- | --- |
| COC(=O)c1c(C)cccc1C1CN=NC12Cc1cc(C)c(C)cc1C2=O (stereo unspecified) | 44.5 µM (inactive) |
| CCCCN(C)CC(C(C)=O)C(c1ccccc1)c1c(O)c2ccccc2oc1=O (stereo unspecified) | > 100 µM (inactive) |
| CC(=N\N=C\c1ccccn1)/C(C)=N/N=C(C)/C(C)=N/N=C(C)/C(C)=N/N=C/c1ccccn1 | > 100 µM (inactive) |
| Cc1cc(C(=O)CBr)c(CN2C(=O)c3ccccc3C2=O)c(=O)n1C | 33.3 µM (inactive) |

Lookup result for O=S(O)CCCCCSSc1ccccc1 ; measured GI50: > 100 µM (inactive)

Lookup result for CC1(C)C(=O)/C(=C/c2ccccc2)C(C)(C)C1(C)C ; measured GI50: > 100 µM (inactive)

====

Tested on: SF-539
Assay Procedure: NCI tumour cell line growth inhibition, 48 h
The source made the active and inactive calls. Rule as the data show it: active = GI50 up to about 1.1 µM and inactive = higher.
Measured Quantity: GI50

Answered cases to consult:
| Compound | GI50 |
| --- | --- |
| COc1ccc(OC)c(-c2cc(O)c3cc4c(cc3n2)OCO4)c1 | 5.7 µM (inactive) |
| CC1=NN(c2cccc(Cl)c2)C2(SCC(=O)N2c2nc3ccccc3s2)/C1=C\c1ccc(Cl)cc1 (stereo not given) | 26.2 µM (inactive) |
| CS(=O)(=O)N1CC(CCl)c2ccc(NO)cc21 (stereo not given) | 10.2 µM (inactive) |
| O=C(Nc1ccc2ncccc2c1)c1cc2c(cc1Cl)Sc1nccn1S2(=O)=O | 20 µM (inactive) |
| Cn1c(=O)c2nc(CCCCc3nc4ccccc4[nH]3)[nH]c2n(C)c1=O | 17 µM (inactive) |

// next entry
Lookup result for COc1ccc2nc(NC(=O)C(=O)NNC(=O)c3ccncc3)sc2c1 ; measured GI50: > 100 µM (inactive)

====

The following compounds are shown together with reported GI50 values.
System: MDA-N
Assay Procedure: NCI tumour cell line growth inhibition, 48 h
Active and inactive are the calls of the source. Rule as the data show it: active = GI50 up to about 1.1 µM and inactive = higher.

Answered cases to consult:
| Compound | Test Value |
| --- | --- |
| O=C1NC(NNc2ccccc2)=N/C1=C\c1ccco1 | 26.9 µM (inactive) |
| CC(Oc1ccc(Cl)cc1Cl)C(=O)NN1C(=O)CC(=O)NC1=S (centres undefined) | > 100 µM (inactive) |
| CCOC(=O)c1sc2nc(SC)nc3c2c1N=CN3c1ccccc1Cl | > 100 µM (inactive) |
| O=C(NCCCCCN1CCC2(CCCCC2)CC1)C(C1CCCCC1)C1CCCCC1 | 1.84 µM (inactive) |
| CS(=O)(=O)OCCCSCCSCCCOS(C)(=O)=O | > 100 µM (inactive) |

Lookup result for C=C1C(=O)O[C@H]2[C@@H](O)[C@H](C)CCC/C(C)=C/CC[C@@]3(C)O[C@@H]3C[C@@H]12 ; measured GI50: 11.2 µM (inactive)

Lookup result for CCOC(=O)C1CCCCc2sc(N)c(C#N)c21 (centres undefined) ; measured GI50: > 100 µM (inactive)

Lookup result for Cc1cccc2c1c(=O)c1c(O)cc(O)cc1n2C ; measured GI50: > 100 µM (inactive)

Lookup result for O=S1(=O)c2ccccc2C(Nc2ccccc2)N1c1ccccc1 (centres undefined) ; measured GI50: > 100 µM (inactive)

Lookup result for C=CC1=C(C)c2cc3[nH]c(c4c5nc(cc6[nH]c(cc1n2)c(C)c6CC)C(C)=C5C(=O)[C@@H]4C(=O)OC)[C@@H](CCC(=O)O)[C@@H]3C ; measured GI50: 5.27 µM (inactive)

====

System: ACHN
Assay Procedure: NCI tumour cell line growth inhibition, 48 h
Calls of active or inactive are those of the source. Cut-off read from the data, not from the text of the source: active = GI50 up to about 1.1 µM and inactive = higher.
Your answer must be one of the following: 1.0 (active), 0.0 (inactive)

Solved entries (count: 8):
| Compound | Class Assignment |
| --- | --- |
| O=C1c2cnccc2Cc2cccc3c2N1c1ccccc1S3 | 0.0 |
| COc1ccc(C[C@H]2COC(=O)[C@@H]2Cc2ccc(O)cc2)cc1OC | 0.0 |
| O=[N+]([O-])/C(C(Cl)=C(Cl)Cl)=C1\Nc2ccccc2O1 | 0.0 |
| O=C1c2cccc3cc([N+](=O)[O-])cc(c23)C(=O)N1O | 0.0 |
| O=S(O)CCCCCSSc1ccccc1 | 0.0 |
| COc1ccc(Oc2cnn(C(Br)(Br)C(C)=O)c(=O)c2Br)cc1 | 0.0 |
| COc1cc(C2c3cc4c(cc3[C@@H](OCCN(C)C)C3COC(=O)[C@H]23)OCO4)cc(OC)c1O (stereo partly specified) | 1.0 |
| CCOC(=O)c1cc(C#N)[nH]c1-c1ccsc1 | 0.0 |

For this compound, state the assay outcome: COc1cc(C)c(C)c(OC(=O)c2c(C)c(C)c(OC)c(C)c2OC)c1C
0.0

For this compound, state the assay outcome: Cc1cn(CCCCOC(=O)NC(CCCNC(=N)N)C(=O)O)c(=O)[nH]c1=O (stereo unspecified)
0.0

For this compound, state the assay outcome: CC1(C)C(=O)/C(=C/c2ccccc2)C(C)(C)C1(C)C
0.0

Data provenance: ChEMBL document CHEMBL1201862
